- assayed-target: THRβ (Homo sapiens)
- Construct: RXRα and GST-tagged THRβ-LBD
- Sequence (P10828 217-461 limits assumed, other chains not shown): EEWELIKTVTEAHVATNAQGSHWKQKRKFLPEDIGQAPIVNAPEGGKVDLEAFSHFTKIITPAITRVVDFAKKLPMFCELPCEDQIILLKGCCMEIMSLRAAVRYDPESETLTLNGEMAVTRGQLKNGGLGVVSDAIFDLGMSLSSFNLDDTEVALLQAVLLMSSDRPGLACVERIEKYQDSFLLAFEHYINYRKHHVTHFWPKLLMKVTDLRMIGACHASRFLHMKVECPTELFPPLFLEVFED
- Sequence (P19793 whole entry partner, other chains not shown, the tested form may be a part): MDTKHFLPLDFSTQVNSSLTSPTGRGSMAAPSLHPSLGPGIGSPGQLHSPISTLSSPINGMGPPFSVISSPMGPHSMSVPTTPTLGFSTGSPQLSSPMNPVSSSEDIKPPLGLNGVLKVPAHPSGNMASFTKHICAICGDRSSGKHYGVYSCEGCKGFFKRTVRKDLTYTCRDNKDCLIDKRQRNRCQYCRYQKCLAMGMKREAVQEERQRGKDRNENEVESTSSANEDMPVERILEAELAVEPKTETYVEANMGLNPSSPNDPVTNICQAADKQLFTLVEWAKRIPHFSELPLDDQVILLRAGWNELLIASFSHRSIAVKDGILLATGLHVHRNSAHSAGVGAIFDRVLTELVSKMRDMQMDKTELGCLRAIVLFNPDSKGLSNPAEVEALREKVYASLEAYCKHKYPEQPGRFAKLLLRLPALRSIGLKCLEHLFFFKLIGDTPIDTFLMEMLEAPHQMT
- test-summary: THRβ binding assay (TR-FRET co-activating peptide recruitment)
- Assay type: biochemical
- assay-setup: THRβ-LBD/RXRα, SRC2-2 co-activating peptide recruitment, agonistic effect
quantity: Emax (%)
Give bare numbers, in %.

# map each molecule to its Emax
1. C=C(C)c1cc(Oc2c(Cl)cc(-n3nc(CF)c(=O)[nH]c3=O)cc2Cl)n[nH]c1=O [Example 18]
2. O=c1[nH]nc(Oc2c(Cl)cc(-n3nc(CF)c(=O)[nH]c3=O)cc2Cl)cc1C1CCC1 [Example 14]
3. CC(C)c1cc(Oc2c(Cl)cc(-n3nc(C4CC4)c(=O)[nH]c3=O)cc2Cl)n[nH]c1=O [Example 19]

1: 124; 2: 117; 3: 77.7

# map each molecule to its Emax
1. CC(C)c1cc(Oc2c(Cl)cc(-n3nc(CF)c(=O)[nH]c3=O)cc2Cl)n[nH]c1=O [Example 2]
2. O=c1[nH]nc(Oc2c(Cl)cc(-n3nc(CF)c(=O)[nH]c3=O)cc2Cl)cc1C1CC1 [Example 12]
3. CC(C)(F)c1cc(Oc2c(Cl)cc(-n3nc(CF)c(=O)[nH]c3=O)cc2Cl)n[nH]c1=O [Example 16]
4. O=c1[nH]nc(Oc2c(Cl)cc(-n3nc(CF)c(=O)[nH]c3=O)cc2Cl)cc1C1CCCC1 [Example 10]
5. O=c1[nH]nc(Oc2c(Cl)cc(-n3nc(CF)c(=O)[nH]c3=O)cc2Cl)cc1C1CCCCC1 [Example 9]

1. 92.8
2. 105
3. 111
4. 110
5. 108

Origin of the recorded values: patent US20230089582A1
